System: MDA-MB-468 breast
Assay: NCI-60 one-dose screen, 48 h (100 = growth as untreated, 0 = no growth, -100 = all killed)
Conditions: 10 µM unless noted
The panel holds about 83,000 compounds, 20% with a hit somewhere; the sample as a whole holds those more often.
Each entry below lists one item and its recorded growth value.
Please state the figure in %; there is no need to write the unit.

# example entries with known answers
CCOC(=O)c1nnn(C(Cc2ccccc2Cl)C(=O)OCC)c1C (centres undefined)	110
CC1(C)[C@@H](O)CC[C@]2(C)[C@H]3CC[C@@H]4[C@H]5[C@H](C(=O)/C=C\c6ccncc6)CC[C@]5(O)CC[C@@]4(C)[C@]3(C)CC[C@@H]12	17.5
N#Cc1c(-c2ccc(F)cc2)nc(N=Nc2c(O)[nH]c3ccccc23)nc1N1CCOCC1	59.1
NS(=O)(=O)c1ccc(C(=O)N=Nc2c(O)[nH]c3c(F)cccc23)cc1	96.3
COc1ccc(NC(=O)c2sc3nc(C)c(C(=O)c4ccc(OC)cc4)cc3c2N)cc1	13.2

Measured growth of O=C(CSc1nnc(-c2ccc(Cl)cc2)n1-c1ccccc1)Nc1cccc(F)c1 : 17.2

In plain terms, Nc1nc(Nc2ccccc2SSc2ccccc2Nc2nc(N)nc(-c3cccc(Cl)c3)n2)nc(-c2cccc(Cl)c2)n1 has a documented growth of 95.3

// growth value for Cc1ccc2cc3c(N)c4c(C)ccc(C)c4nc3nc2c1 : 29.9
